target: Hck (UniProt P08631); assay: phosphorylation enrichment, bacterial display (enrichment ratio); higher = better substrate or ligand; peptides without Tyr show the background;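 note: 11-residue human phosphosite peptides and single-mutation variants displayed on the E. coli surface, counted by deep sequencing, each peptide's frequency after selection divided by its frequency in the unselected input library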;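 note: frequency after pTyr selection over input frequency; kinase dosed for 20-30% of maximal phosphorylation in three min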
Sequence (P08631 whole entry, looked up): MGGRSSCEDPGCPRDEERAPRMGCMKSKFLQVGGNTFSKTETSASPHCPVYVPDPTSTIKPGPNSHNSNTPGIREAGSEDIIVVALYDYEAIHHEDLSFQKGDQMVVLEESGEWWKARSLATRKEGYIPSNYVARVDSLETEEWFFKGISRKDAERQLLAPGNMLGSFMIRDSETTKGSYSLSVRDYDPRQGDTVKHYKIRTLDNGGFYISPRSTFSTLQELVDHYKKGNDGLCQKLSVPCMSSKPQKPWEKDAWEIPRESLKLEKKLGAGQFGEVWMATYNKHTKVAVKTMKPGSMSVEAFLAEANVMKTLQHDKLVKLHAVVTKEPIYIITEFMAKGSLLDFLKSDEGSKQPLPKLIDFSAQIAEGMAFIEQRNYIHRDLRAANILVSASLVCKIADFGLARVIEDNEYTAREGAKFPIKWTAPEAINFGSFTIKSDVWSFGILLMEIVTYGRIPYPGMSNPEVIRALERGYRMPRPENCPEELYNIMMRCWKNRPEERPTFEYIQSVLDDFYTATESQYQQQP
In this section we review reported phosphorylation enrichment values for a set of sequences.
Reply: number alone, nothing else.

>  <SEQUENCE TEXT>
IPGVEYLVSII [TNC_Y1775]

>  <phosphorylation enrichment>
0.491

$$$$
>  <SEQUENCE TEXT>
TGEDWYVLVRV [SF3B3_Y904_G908R]

>  <phosphorylation enrichment>
0.561

$$$$
>  <SEQUENCE TEXT>
GGFTCCCDGKK [PROS1_Y266_Y266C_YF]

>  <phosphorylation enrichment>
0.504

$$$$
>  <SEQUENCE TEXT>
YGLPRYRWLTH [TSPAN12_Y143]

>  <phosphorylation enrichment>
0.543

$$$$

Prompt: Consider the sequence LERYIYNREEY [HLA-DPB1_Y59_F64Y] and give its measured phosphorylation enrichment.
Completion: 1.72

These entries and their values trace back to the supplement of paper PMC10065799.
